Below, each entry is listed alongside its reported UI.
System: Rattus norvegicus
EXPERIMENTAL PROTOCOL: Gastrointestinal toxicity in albino rat assessed as ulcerogenic indicates at dose 30 mg/kg, po
STATED CONDITIONS: in vivo
TEST READOUT: UI

1. Cc1ccc(-c2nnc(CCC(=O)c3ccc(-c4ccccc4)cc3)o2)cc1	0.5
2. O=C(CCc1nnc(-c2ccccc2)o1)c1ccc(-c2ccccc2)cc1	0.4
3. O=C(CCc1nnc(Cc2ccccc2)o1)c1ccc(-c2ccccc2)cc1	0.5
4. CC(=O)Oc1ccccc1-c1nnc(CCC(=O)c2ccc(-c3ccccc3)cc2)o1	0.7
5. O=C(CCc1nnc(-c2ccccc2Cl)o1)c1ccc(-c2ccccc2)cc1	0.5
6. O=C(CCc1nnc(-c2ccc(F)cc2)o1)c1ccc(-c2ccccc2)cc1	0.6
7. O=C(CCc1nnc(COc2ccccc2)o1)c1ccc(-c2ccccc2)cc1	0.6
8. O=C(CCc1nnc(-c2ccc(Cl)cc2)o1)c1ccc(-c2ccccc2)cc1	0.6

* * *

TARGET OR SYSTEM: Prostaglandin G/H synthase 1 (Ovis aries)
Sequence (P05979 whole entry): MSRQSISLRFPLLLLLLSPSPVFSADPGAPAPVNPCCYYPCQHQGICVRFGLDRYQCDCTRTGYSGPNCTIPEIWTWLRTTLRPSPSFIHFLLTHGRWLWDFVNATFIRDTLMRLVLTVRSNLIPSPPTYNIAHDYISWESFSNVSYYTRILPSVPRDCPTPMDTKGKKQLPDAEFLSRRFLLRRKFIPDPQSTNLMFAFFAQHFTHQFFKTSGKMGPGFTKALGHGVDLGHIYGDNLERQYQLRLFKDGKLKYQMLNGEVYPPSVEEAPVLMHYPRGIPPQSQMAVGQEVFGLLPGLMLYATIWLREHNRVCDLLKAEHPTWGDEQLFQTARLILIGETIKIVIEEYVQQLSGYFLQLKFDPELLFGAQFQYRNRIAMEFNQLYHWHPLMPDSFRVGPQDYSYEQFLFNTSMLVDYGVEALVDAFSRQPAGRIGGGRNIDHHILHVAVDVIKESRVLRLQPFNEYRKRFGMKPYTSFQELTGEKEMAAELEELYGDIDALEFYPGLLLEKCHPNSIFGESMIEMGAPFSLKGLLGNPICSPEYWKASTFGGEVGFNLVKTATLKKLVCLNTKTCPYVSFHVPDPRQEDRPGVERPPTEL
pIC50: −log10 of the molar value.
Measured pIC50 values are reported for all entries that follow.
TEST READOUT: pIC50

1. O=C(O)CCC(=O)c1ccc(-c2ccccc2)cc1	5.41
2. O=C(CCc1nnc(-c2ccc([N+](=O)[O-])cc2)o1)c1ccc(-c2ccccc2)cc1	4.37
3. O=C(CCc1nnc(COc2ccc3ccccc3c2)o1)c1ccc(-c2ccccc2)cc1	4.32
4. COc1ccc(-c2nnc(CCC(=O)c3ccc(-c4ccccc4)cc3)o2)cc1	4.28
5. COc1ccc(-c2nnc(CCC(=O)c3ccc(-c4ccccc4)cc3)o2)cc1OC	4.27

* * *

System: Gastric mucosa
EXPERIMENTAL PROTOCOL: Inhibition of lipid peroxidation assessed as malondialdehyde level per 100 mg of gastric mucosa isolated from albino rat at dose 30 mg/kg, po
TEST READOUT: MDA content at 30 mg/kg (nmol MDA/100 mg tissue)

1. O=C(CCc1nnc(-c2ccccc2)o1)c1ccc(-c2ccccc2)cc1	4.3
2. O=C(CCc1nnc(COc2ccccc2)o1)c1ccc(-c2ccccc2)cc1	5.8
3. O=C(O)Cc1ccccc1Nc1c(Cl)cccc1Cl	8.9
4. O=C(CCc1nnc(Cc2ccccc2)o1)c1ccc(-c2ccccc2)cc1	5.8
5. O=C(CCc1nnc(-c2ccc([N+](=O)[O-])cc2)o1)c1ccc(-c2ccccc2)cc1	4.3
6. O=C(O)CCC(=O)c1ccc(-c2ccccc2)cc1	6.8
7. COc1ccc(-c2nnc(CCC(=O)c3ccc(-c4ccccc4)cc3)o2)cc1	6.1
8. CC(=O)Oc1ccccc1-c1nnc(CCC(=O)c2ccc(-c3ccccc3)cc2)o1	5.8
9. Cc1ccc(-c2nnc(CCC(=O)c3ccc(-c4ccccc4)cc3)o2)cc1	5.8
10. O=C(CCc1nnc(-c2ccccc2Cl)o1)c1ccc(-c2ccccc2)cc1	5.7
11. O=C(CCc1nnc(-c2ccc(Cl)cc2)o1)c1ccc(-c2ccccc2)cc1	5.8
12. O=C(CCc1nnc(COc2ccc3ccccc3c2)o1)c1ccc(-c2ccccc2)cc1	5.9
13. O=C(CCc1nnc(-c2ccc(F)cc2)o1)c1ccc(-c2ccccc2)cc1	4.6
14. COc1ccc(-c2nnc(CCC(=O)c3ccc(-c4ccccc4)cc3)o2)cc1OC	4.9
